# Measurement Protocol: Selectivity index, ratio of CC50 for human Huh7.5 cells to EC50 for HCV genotype 2a JFH-1 infected in human Huh7.5 cells
# Type: toxicity, cell-based
# Assay Context: read-out: Ratio CC50/EC50
Metric: selectivity ratio
Please give only the number in your answer, with no unit.

- Compound: "COc1cc(C(C(=O)NC(C)(C)C)N(C(=O)Cc2c[nH]c3ccccc23)c2ccc(C(C)C)cc2)cc(OC)c1OC (configuration not stated)"
  Reported Value: 2.3
- Compound: "COc1ccc(N(C(=O)Cc2c[nH]c3ccccc23)C(C(=O)NC2CCCCC2)c2ccc(OC)c(OC)c2)cc1 (configuration not stated)"
  Reported Value: 8.6
- Compound: "COc1cc(C(C(=O)NC2CCCCC2)N(C(=O)Cc2c[nH]c3ccccc23)c2cccc3ccccc23)cc(OC)c1OC (configuration not stated)"
  Reported Value: 3.4
- Compound: "COc1ccc(N(C(=O)Cc2c[nH]c3ccccc23)C(C(=O)NC2CCCCC2)c2cc(OC)c(OC)c(OC)c2)cc1 (configuration not stated)"
  Reported Value: 9
- Compound: "COc1ccc(N(C(=O)Cc2c[nH]c3ccccc23)C(C(=O)NC2CCCCC2)c2cc(OC)c(OC)c(OC)c2)cc1OC (configuration not stated)"
  Reported Value: 5.5
- Compound: "COc1ccc(C(C(=O)NC2CCCCC2)N(C(=O)Cc2c[nH]c3ccccc23)c2ccc(C(C)C)cc2)cc1OC (configuration not stated)"
  Reported Value: 3.5
- Compound: "COc1ccc(C(C(=O)NC2CCCCC2)N(C(=O)Cc2c[nH]c3ccccc23)c2ccc(OC)c(OC)c2)cc1OC (configuration not stated)"
  Reported Value: 10.5
- Compound: "COc1cc(C(C(=O)NC(C)(C)C)N(C(=O)c2cc3ccccc3[nH]2)c2ccc(C(C)C)cc2)cc(OC)c1OC (configuration not stated)"
  Reported Value: 6.2

# ---- query compound ----
Query: Given the compound COc1cc(C(C(=O)NC2CCCCC2)N(C(=O)c2cc3ccccc3[nH]2)c2ccc(C(C)C)cc2)cc(OC)c1OC (configuration not stated) , what is its reported selectivity ratio?
Reply: 9.7
